- Tested on: SK-MEL-28
- TEST_SUMMARY: Anticancer activity against human SK-MEL-28 cells assessed as reduction in cell viability incubated for 24 hrs by MTT assay
- Assay type: functional, cell-based
- CONDITION_PARAMETERS: SK-MEL-28, 24 h

>  <COMPOUND>
CC(=O)O[C@H]1C(=O)[C@@]2(C)[C@H]([C@H](OC(=O)c3ccccc3)[C@]3(O)C[C@H](OC(=O)[C@H](O)[C@@H](NC(=O)c4ccccc4)c4ccccc4)C(C)=C1C3(C)C)[C@]1(OC(C)=O)CO[C@@H]1C[C@@H]2O [PACLITAXEL]

>  <TARGET_OR_SYSTEM>
SK-MEL-28

>  <IC50 (µM)>
1.07

$$$$
>  <COMPOUND>
C[C@H]1[C@H](OC(=O)CCC(=O)Oc2cc3ccc(=O)oc3cc2O)O[C@@H]2C[C@]3(C)CC[C@H]4[C@H](C)CC[C@@H]1[C@@]24OO3

>  <TARGET_OR_SYSTEM>
SK-MEL-28

>  <IC50 (µM)>
97.9

$$$$
>  <COMPOUND>
COc1cc2ccc(=O)oc2cc1OC(=O)CCC(=O)O[C@@H]1O[C@@H]2C[C@]3(C)CC[C@H]4[C@H](C)CC[C@@H]([C@H]1C)[C@@]24OO3

>  <TARGET_OR_SYSTEM>
SK-MEL-28

>  <IC50 (µM)>
132

$$$$
>  <COMPOUND>
O=c1cc(C(F)(F)F)c2ccc(O)cc2o1

>  <TARGET_OR_SYSTEM>
SK-MEL-28

>  <IC50 (µM)>
1.1

$$$$
>  <COMPOUND>
O=c1oc2ccccc2cc1O [3-HYDROXYCOUMARIN]

>  <TARGET_OR_SYSTEM>
SK-MEL-28

>  <IC50 (µM)>
1.2

$$$$
>  <COMPOUND>
O=c1ccc2ccc(O)cc2o1 [UMBELLIFERONE]

>  <TARGET_OR_SYSTEM>
SK-MEL-28

>  <IC50 (µM)>
0.48

$$$$
>  <COMPOUND>
C[C@H]1[C@H](OC(=O)CCC(=O)Oc2ccc3c(C(F)(F)F)cc(=O)oc3c2)O[C@@H]2C[C@]3(C)CC[C@H]4[C@H](C)CC[C@@H]1[C@@]24OO3

>  <TARGET_OR_SYSTEM>
SK-MEL-28

>  <IC50 (µM)>
6.84

$$$$
>  <COMPOUND>
C[C@H]1[C@H](OC(=O)CCC(=O)Nc2ccc3c(C(F)(F)F)cc(=O)oc3c2)O[C@@H]2C[C@]3(C)CC[C@H]4[C@H](C)CC[C@@H]1[C@@]24OO3

>  <TARGET_OR_SYSTEM>
SK-MEL-28

>  <IC50 (µM)>
1090

$$$$
>  <COMPOUND>
Cc1cc(=O)oc2cc(O)ccc12 [HYMECROMONE]

>  <TARGET_OR_SYSTEM>
SK-MEL-28

>  <IC50 (µM)>
0.58

$$$$
>  <COMPOUND>
C[C@H]1[C@H](OC(=O)CCC(=O)Oc2ccc3oc(=O)ccc3c2)O[C@@H]2C[C@]3(C)CC[C@H]4[C@H](C)CC[C@@H]1[C@@]24OO3

>  <TARGET_OR_SYSTEM>
SK-MEL-28

>  <IC50 (µM)>
576

$$$$
>  <COMPOUND>
COc1cc2ccc(=O)oc2cc1O [SCOPOLETIN]

>  <TARGET_OR_SYSTEM>
SK-MEL-28

>  <IC50 (µM)>
3.43

$$$$
>  <COMPOUND>
Nc1ccc2c(C(F)(F)F)cc(=O)oc2c1

>  <TARGET_OR_SYSTEM>
SK-MEL-28

>  <IC50 (µM)>
0.98

$$$$
